The values you see were collected from the C3SDB collision cross section collection.

Condition: [M-H]-; instrument: TW; calibrated with phosphatidylcholines (ESI+) and phosphatidylethanolamines (ESI-)
Kindly supply the reported collision cross section (N2) values for the records listed here.
Give the value, in units of Å², as a plain number.

Returns the measured collision cross section (N2) for the input molecule. Input: `CC/C=C\C/C=C\C/C=C\CCCCCCCC(=O)O[C@H](COC(=O)CCCCCCCCC/C=C\CCCCCCCC)COP(=O)(O)OC[C@@H](O)CO`
277.7

Moving on to the next molecule: `CCCCCCCC/C=C\CCCCCCCCCC(=O)O[C@H](COC(=O)CCCCCCCCCCC)COP(=O)(O)OC[C@@H](O)CO`
262.5

// query: `CC/C=C\C/C=C\C/C=C\C/C=C\C/C=C\CCCC(=O)O[C@H](CO/C=C\CCCCCCCCCCCCCCCCCC)COP(=O)(O)OCCN`
274.8

What do we get for `CCCCCCCCCCCCC=CC[C@@H](O)[C@H](CO)NC(=O)CCCCCCCCCCCCCCCCCCC` ?
255.8

Another molecule to check: `CCCCCCCCCCCCC=CC[C@@H](O)[C@H](CO)NC(=O)CC=CCCCCCCCCCCCCCC`
248.5

Now consider `CCCCCCCCCCCCC=CC[C@@H](O)[C@H](CO)NC(=O)CCCCCCCCCCCCCCCCCCCCC` .
262

Next up: `CCCCCCCCCCCCCCCCCCCC(=O)OC[C@H](COP(=O)(O)OC[C@@H](O)CO)OC(=O)CCCCCCCCCCCCC`
269

Try this molecule too: `CCCCC/C=C\C/C=C\C/C=C\CCCCC(=O)O[C@H](COC(=O)CCCCCCCCC/C=C\CCCCCCCC)COP(=O)(O)O`
263.4

Now consider `CCCCC/C=C\C/C=C\C/C=C\CCCCCCC(=O)OC[C@H](COP(=O)(O)OC[C@H](N)C(=O)O)OC(=O)CCCCCCC/C=C\C/C=C\CCCCC` .
279

And then `CCCCCCCCCCCCCCCC/C=C\OC[C@@H](O)COP(=O)([O-])OCC[NH3+]` , what is it?
211.4

Now the molecule `CCCC/C=C\CCCCCCCC(=O)OC[C@H](COP(=O)(O)OC[C@@H](O)CO)OC(=O)CCCCCCCCC/C=C\CCCCCCCCCC`
274.3

And for `CCCCCCCCCCCCC=CC[C@@H](O)[C@H](CO)NC(=O)CCCCCCCCCCCCCCCCCCCCCCC` ?
268

Again, but for `CCCCCCCCCC/C=C\CCCCCCCCCC(=O)O[C@H](COC(=O)CCCCCCCCCCCCC)COP(=O)(O)OCCN`
268.8

* * *

Condition: [M+H]+; instrument: TW; calibrated with polyalanine and drug standards
Readout kind: collision cross section (N2) (Å²)
# unit: Å² | format: bare number

Param item = `CN1C(=O)CC[C@H]1c1cccnc1` ; retrieve measured collision cross section (N2).
141.1

What do you have for `Cc1ncc(CNC(=O)N(CCCl)N=O)c(N)n1` ?
158.9

Lookup `COc1ccc2[nH]cc(CCNC(C)=O)c2c1`
152

Field entry: C[C@H]1O[C@H](O[C@H]2[C@H](O)[C@@H](O)[C@@H](O[C@H]3[C@H](O)[C@@H](O)C(O)O[C@@H]3CO)O[C@@H]2CO)[C@H](O)[C@@H](O)[C@@H]1N[C@H]1C=C(CO)[C@@H](O)[C@H](O)[C@H]1O (some centres undefined)
231

Query `CC(C)N=c1cc2n(-c3ccc(Cl)cc3)c3ccccc3nc-2cc1Nc1ccc(Cl)cc1` next
216.8

And for `CC1(C)C[C@@H]2C(=O)CC[C@H]3O[C@]3(C)CC[C@H]21` ?
146.3

Another compound: `C=C1C(=O)O[C@@H]2C[C@@]3(C)CCC[C@H](C)C3=C[C@H]12`
149.5

# iterate: `COC1=CC(=O)C=C(OC)C1=O`
129.5

Lookup `C=C(C)c1cc2cc(C(C)=O)c(O)cc2o1`
143.2

* * *

Condition: [M+NH4]+; instrument: TW; calibrated with polyalanine
Readout kind: collision cross section (N2) (Å²)
Answer in Å², number only, no unit symbol.

// lookup collision cross section (N2) for CC[C@H](C)[C@H]1C(=O)O[C@H](C(C)C)C(=O)N(C)[C@@H]([C@@H](C)CC)C(=O)O[C@H](C(C)C)C(=O)N(C)[C@@H](C(C)C)C(=O)O[C@H](C(C)C)C(=O)N1C [Enniatin A1]
259

Cool, now CC(C)[C@H]1OC(=O)[C@H](Cc2ccccc2)N(C)C(=O)[C@@H](C(C)C)OC(=O)[C@H](Cc2ccccc2)N(C)C(=O)[C@@H](C(C)C)OC(=O)[C@H](Cc2ccccc2)N(C)C1=O [Beauvericin]
269

Moving on to CC[C@H](C)[C@H]1C(=O)O[C@H](C(C)C)C(=O)N(C)[C@@H]([C@@H](C)CC)C(=O)O[C@H](C(C)C)C(=O)N(C)[C@@H]([C@@H](C)CC)C(=O)O[C@H](C(C)C)C(=O)N1C [Enniatin A]
264

// repeat for COc1c(C)c2c(c(O)c1C/C=C(\C)CCC(=O)O)C(=O)OC2 [Mycophenolic acid] and report
176

* * *

Assignment: determine reported collision cross section (N2) for the given molecules.
Condition: [M-H]-; instrument: DT; single field, calibrated with Agilent tune mix (Agilent)
Counter-ions that a name gives are not always drawn.
Give just the numeric value; Å² need not be written.

Dear colleague, I am looking for the recorded collision cross section (N2) of the following molecule: O=c1ccn([C@@H]2O[C@H](COP(=O)(O)OP(=O)(O)OP(=O)(O)O)[C@@H](O)[C@H]2O)c(=O)[nH]1 [Uridine 5'-triphosphate]
178.55

Note, next up: `CC(=O)[C@H]1CC[C@H]2[C@@H]3CCC4=CC(=O)CC[C@]4(C)[C@H]3CC[C@]12C`
182.13

Item: `COc1cc(C=O)ccc1O`
124.3

Please do the same for O=P(O)(O)O[C@]1(CO)O[C@H](CO)[C@@H](O)[C@@H]1O [Beta-D-Fructose 2-phosphate] as well.
141.51

Same read-out for O=C(O)C1(O)C[C@@H](O)C(O)[C@H](O)C1 (some centres not stated) [Quinate] ?
132.25

Quick one: O=C(O)[C@H]1C[C@@H](O)CN1 [cis-4-Hydroxy-D-proline]
122.02

Entry CC(C)=CCOP(=O)(O)OP(=O)(O)O [Dimethylallyl pyrophosphate] please
143.1

Further, for `C[C@]12CCC(=O)C=C1CC[C@@H]1[C@@H]2[C@@H](O)C[C@]2(C=O)[C@@H](C(=O)CO)CC[C@@H]12` ?
181.09

Check O=C(O)[C@@H](O)[C@H](O)[C@H](O)[C@@H](O)C(=O)O [D-Galactarate] too.
130.24

Ok, now `O=C(O)[C@H]1CCCN1`
122.49

Now the molecule O=C(O)c1ccccc1O[C@@H]1O[C@H](C(=O)O)[C@@H](O)[C@H](O)[C@H]1O [1-Salicylate glucuronide]
157.84

Repeat with C[C@@H]1OC(OP(=O)(O)OP(=O)(O)OC[C@H]2O[C@@H](n3cnc4c(=O)nc(N)[nH]c43)[C@H](O)[C@@H]2O)[C@@H](O)[C@H](O)[C@@H]1O (some centres not stated)
206.72

Input `O=C(O)CCCC[C@@H]1SC[C@@H]2NC(=O)N[C@@H]21`
152.96

Cool, now O=C(O)c1ccc(=O)[nH]c1 [6-Hydroxynicotinic acid]
118.52

Also, `NCCc1ccc(O)c(O)c1` please.
129.51

Another molecule to check: CC12CCC(=O)C=C1CCC1C2CCC2(C)C(C(=O)CO)CCC12 (configuration not stated)
184.42

How about this molecule: `CC(=O)Nc1ccn([C@@H]2O[C@H](CO)[C@@H](O)[C@H]2O)c(=O)n1`
161.4

// next record `O=C1O[C@H](CO)[C@@H](O)[C@H](O)[C@H]1O`
130.59

Same question for `O=Cc1cc(O)ccc1O` please.
119.54

Consider next the molecule CC(C)CCCC(C)CCCC(C)CCCC(C)C(=O)O (configuration not stated) in the same way.
178.79

Request: `CCCCC/C=C\C/C=C\C/C=C\C/C=C\CCCC(=O)O`
178.94

Also N[C@@H](Cc1c[nH]c2ccc(O)cc12)C(=O)O [5-Hydroxy-L-tryptophan] , if possible.
148.86

Now give it for `Cc1c(C)c2c(c(C)c1O)CC[C@@](C)(CCC[C@H](C)CCC[C@H](C)CCCC(C)C)O2` too.
208.52

Now the same for C=C1CC[C@H](O)C/C1=C/C=C1\CCC[C@]2(C)[C@@H]([C@H](C)CCCC(C)(C)O)CC[C@@H]12 [25-hydroxyvitamin D3]
200.06

How about `C[C@H](CCC(=O)NCC(=O)O)[C@H]1CC[C@H]2[C@@H]3CC[C@@H]4C[C@H](O)CC[C@]4(C)[C@H]3C[C@H](O)[C@]12C` ?
197.81

Now try N[C@@H](Cc1ccc(O)c(O)c1)C(=O)O [3,4-Dihydroxy-L-phenylalanine] .
138.21

Now consider `CC1=CC(=O)c2ccccc2C1=O` and answer again.
129.79

Follow-up item: `CCCCCCCCCCCCCCCCCC(=O)SCCNC(=O)CCNC(=O)[C@H](O)C(C)(C)COP(=O)(O)OP(=O)(O)OC[C@H]1O[C@@H](n2cnc3c(N)ncnc32)[C@H](O)[C@@H]1OP(=O)(O)O`
301.81

Next molecule: `C[C@@H](N)C(=O)N[C@H](C)C(=O)O`
134.05

And CC(C)CCC[C@@H](C)[C@H]1CC[C@H]2[C@@H]3CC=C4C[C@@H](OS(=O)(=O)O)CC[C@]4(C)[C@H]3CC[C@]12C [Cholesteryl sulfate] ?
237.01

What would you report for `O=c1nc[nH]c2c1ncn2[C@H]1C[C@H](O)[C@@H](CO)O1` ?
153.4

Same for `O=C(/C=C/c1ccc(O)c(O)c1)O[C@H](Cc1ccc(O)c(O)c1)C(=O)O`
170.26
